Reported composite z-score values for a set of molecules
- Experiment Description: small-molecule microarray binders of probe aShh, primary screen, biochemical, biotinylated probe, 635/667 nm fluorescence (AID 1114);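 note: probe is biotin-labelled aShh protein from a stem cell growth factor screen; measures binding of labelled protein to compounds printed on the slide; score merges feature fluorescence at 667 nm with signal-to-noise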
- Test Context: higher = more signal

{"Molecule": "COc1ccccc1CN1C(=O)c2ccccc2[C@@H](C(=O)NCCN2CCOCC2)[C@@H]1c1ccc(CO)cc1", "composite z-score": 0.123}
{"Molecule": "C=C[C@@H](COC(C)=O)N(Cc1ccc([N+](=O)[O-])cc1)S(=O)(=O)c1ccc(Br)cc1", "composite z-score": -0.0709}
{"Molecule": "CCOC(=O)C1=C[C@@H](CC)N(S(=O)(=O)c2ccc(C)cc2)[C@H]1c1ccccc1", "composite z-score": -0.0709}
{"Molecule": "COCCOC(=O)N1C(=O)[C@@]2(c3cc(C#CC4(O)CCCCCC4)ccc31)[C@H](C(=O)N1CCCCCCC1)[C@H]1C(=O)O[C@H](c3ccccc3)[C@H](c3ccccc3)N1[C@@H]2c1ccccc1OCCO", "composite z-score": 0.906}
{"Molecule": "Cc1c(NC(=O)CC#N)c(=O)n(-c2ccccc2)n1C", "composite z-score": 0.253}
{"Molecule": "COC(=O)C(CC#Cc1ccc2c(c1)[C@]1(C(=O)N2)[C@H](C(=O)NC[C@H](O)c2ccccc2)[C@H]2C(=O)O[C@H](c3ccccc3)[C@H](c3ccccc3)N2[C@@H]1c1ccc(OCCO)cc1)C(=O)OC", "composite z-score": 0.986}
{"Molecule": "N#Cc1ccc(NN2C(C(O)C3CCCCC3)C=CC3C(=O)N(c4ccccc4)C(=O)C32)cc1 (centres undefined)", "composite z-score": 0.294}
{"Molecule": "CCCCC=C[C@@H](NC(=O)c1ccc(C(=O)OC)cc1)c1ccccc1", "composite z-score": 0.0711}
{"Molecule": "CCOC(=O)C[C@H]1[C@H](OC(=O)c2ccc(-c3ccccc3)cc2)[C@@H](NC(=O)Cc2ccc(OC)cc2)c2cc(OCCCO)ccc2N1C(=O)c1ccc2ccccc2n1", "composite z-score": -0.282}
{"Molecule": "COc1ccc(CCN2C(=O)[C@@]3(Cc4ccccc42)c2ccccc2C(=O)N(Cc2ccccc2Cl)[C@H]3c2ccc(CO)cc2)cc1", "composite z-score": -0.138}
{"Molecule": "COC(=O)[C@@]1(Cc2ccc(OC)cc2)[C@H]2c3cc(C(=O)N(C)C)n(Cc4c(OC)[nH]cc(C)c4=O)c3C[C@H]2CN1C(=O)c1ccccc1", "composite z-score": -0.352}
{"Molecule": "CCCNC(=O)[C@@H]1c2ccccc2C(=O)N(Cc2ccccc2)[C@H]1c1ccc(CO)cc1", "composite z-score": -0.138}
{"Molecule": "C=C[C@@H](COC(C)=O)N(Cc1ccccc1[N+](=O)[O-])S(=O)(=O)c1ccc(Br)cc1", "composite z-score": -0.0192}
{"Molecule": "Cc1ccc(S[C@]2(C(=O)NCCN3CCOCC3)CC(=O)N(Cc3cc(C(F)(F)F)cc(C(F)(F)F)c3)[C@@H]2c2ccc(CO)cc2I)cc1", "composite z-score": -0.331}
{"Molecule": "CC(C)(C)OC(=O)CC[C@]1(C(=O)N2CCCCC2)N=C(c2ccc(OCCCO)cc2)O[C@H]1c1ccccc1N=[N+]=[N-]", "composite z-score": -0.385}
{"Molecule": "Cc1ccccc1C(O)C1C=CC2C(=O)N(C)C(=O)C2N1N1CCCCC1 (centres undefined)", "composite z-score": 0.254}
{"Molecule": "CC(C)N1C(=O)[C@@]2(c3ccc([N+](=O)[O-])cc3)CC(=O)N(CC34CC5CC(CC(C5)C3)C4)[C@@H]2c2ccc(CO)cc21", "composite z-score": -0.208}
{"Molecule": "COC(=O)[C@@]1(Cc2ccc(F)cc2)[C@H]2c3cc(C(=O)N(C)C)n(CCc4ccccn4)c3C[C@H]2CN1C(=O)c1ccccc1", "composite z-score": -0.394}
{"Molecule": "COCCOC(=O)N1C(=O)[C@@]2(c3cc(C#Cc4ccc(OC)cc4)ccc31)[C@H](C(=O)N1CCN(c3ncccn3)CC1)[C@H]1C(=O)O[C@H](c3ccccc3)[C@H](c3ccccc3)N1[C@@H]2c1ccc(O)cc1", "composite z-score": -0.138}
{"Molecule": "CCCCC=C[C@@H](NC(=O)c1cccs1)c1ccccc1", "composite z-score": 0.166}
{"Molecule": "CC=CC(O)C1C=CC2C(=O)N(c3ccccc3)C(=O)C2N1Nc1ccc(C(C)C)cc1 (centres undefined)", "composite z-score": 0.0469}
{"Molecule": "[N-]=[N+]=NCc1ccccc1C[C@]1(C(=O)O)N=C(c2ccc(OCCCO)cc2)O[C@H]1c1ccccc1CN=[N+]=[N-]", "composite z-score": -0.0146}
{"Molecule": "Cc1ccccc1C(O)C1C=CC2C(=O)N(C)C(=O)C2N1Nc1ccccc1 (centres undefined)", "composite z-score": -0.0289}
{"Molecule": "COc1ccc(C(O)C2C=CC3C(=O)N(C)C(=O)C3N2Nc2ccccc2)cc1OCc1ccccc1 (centres undefined)", "composite z-score": -0.221}
{"Molecule": "CC(C)c1ccc(NN2C(C(O)c3c(F)cccc3Cl)C=CC3C(=O)N(c4ccccc4)C(=O)C32)cc1 (centres undefined)", "composite z-score": 1.38}
{"Molecule": "CC(C)=CCCC(C)=CC(O)C1C=CC2C(=O)N(c3ccccc3)C(=O)C2N1Nc1ccccc1 (centres undefined)", "composite z-score": 0.393}
{"Molecule": "C=CCC(OC(C)=O)[C@@H]1[C@@H](N(Cc2ccc(-c3ccccc3)cc2)C(=O)Cc2ccc(OC)cc2)c2cc(OCCCO)ccc2N1C(=O)c1ccc2ccccc2n1 (some centres undefined)", "composite z-score": -0.0553}
{"Molecule": "COCCOC(=O)N1C(=O)[C@@]2(c3cc(C#CCNC(N)=O)ccc31)[C@H](c1ccc(OCCO)cc1)N1[C@H](c3ccccc3)[C@H](c3ccccc3)OC(=O)[C@H]1[C@@H]2C(=O)N1CCc2cc(OC)c(OC)cc2C1", "composite z-score": -0.0035}
{"Molecule": "COCCOC(=O)N1C(=O)[C@@]2(c3cc(C#CCNC(N)=O)ccc31)[C@H](C(=O)N1CCc3cc(OC)c(OC)cc3C1)[C@H]1C(=O)O[C@H](c3ccccc3)[C@H](c3ccccc3)N1[C@@H]2c1ccc(OCCO)cc1", "composite z-score": 0.0637}
